// values below are log10 IC50; system is Acetylcholinesterase (Electrophorus electricus, UniProt O42275)
Sequence (O42275 whole entry): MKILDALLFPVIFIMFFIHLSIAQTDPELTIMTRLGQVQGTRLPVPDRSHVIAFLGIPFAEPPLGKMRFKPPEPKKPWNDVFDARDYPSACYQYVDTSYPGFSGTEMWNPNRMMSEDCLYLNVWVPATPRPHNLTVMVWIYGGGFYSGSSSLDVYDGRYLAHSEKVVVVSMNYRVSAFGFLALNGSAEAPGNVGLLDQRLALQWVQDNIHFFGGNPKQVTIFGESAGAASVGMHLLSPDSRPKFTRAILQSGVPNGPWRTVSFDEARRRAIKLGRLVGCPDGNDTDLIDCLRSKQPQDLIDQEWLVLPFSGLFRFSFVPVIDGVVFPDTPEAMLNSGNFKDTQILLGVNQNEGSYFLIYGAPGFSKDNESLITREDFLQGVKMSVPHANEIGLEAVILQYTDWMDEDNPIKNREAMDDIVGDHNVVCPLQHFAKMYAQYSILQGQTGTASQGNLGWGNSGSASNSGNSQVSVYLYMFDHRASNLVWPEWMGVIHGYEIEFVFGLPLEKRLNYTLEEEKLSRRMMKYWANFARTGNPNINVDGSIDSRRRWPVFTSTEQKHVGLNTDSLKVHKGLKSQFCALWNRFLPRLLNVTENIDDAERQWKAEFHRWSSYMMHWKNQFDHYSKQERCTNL
Could you please treat all values as log10 of IC50 in nM?

Use these answered entries as a reference point.
COc1ccc2cc3[n+](cc2c1OCCCO)CCc1cc2c(cc1-3)OCO2 ... 3.37
COc1ccc2cc3[n+](cc2c1OCCN(C)C)CCc1cc2c(cc1-3)OCO2 ... 3.24
CCN(CC)CCCOc1c(OC)ccc2cc3[n+](cc12)CCc1cc2c(cc1-3)OCO2 ... 2.02
COc1ccc2cc3[n+](cc2c1OCCCN1CCCCC1)CCc1cc2c(cc1-3)OCO2 ... 1.72

// switching to the query compound
Entry COc1ccc2cc3[n+](cc2c1OCCN1CCOCC1)CCc1cc2c(cc1-3)OCO2 , Acetylcholinesterase (Electrophorus electricus, UniProt O42275) data, log10 IC50 value: 3.26

###

- Tgt: Acetylcholinesterase (Electrophorus electricus, UniProt O42275)
pIC50: −log10 of the molar value.
Kind request: treat 7 as inclusive, so pIC50 at 7 or higher is y, anything lower is n.

Observe how each entry below is paired with its result.
COc1ccc2cc3[n+](cc2c1OCCCN(C)C)CCc1cc2c(cc1-3)OCO2 ... n
CCCN(CCC)CCCOc1c(OC)ccc2cc3[n+](cc12)CCc1cc2c(cc1-3)OCO2 ... n
COc1ccc2cc3[n+](cc2c1OCCCN1CCOCC1)CCc1cc2c(cc1-3)OCO2 ... n

Turning now to a further compound:
Confirm if pIC50 reported for the compound COc1ccc2cc3[n+](cc2c1OCCCNC1CCCCC1)CCc1cc2c(cc1-3)OCO2 is 7 or above.
y
